B1: Osa-1-4 twister ribozyme (parent)
chain: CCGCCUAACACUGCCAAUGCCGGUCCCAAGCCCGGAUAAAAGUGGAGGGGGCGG

Variants of: B1
Test: self-cleavage, relative activity (ratio to wild type); higher = more cleavage; co-transcriptional
# label = T if self-cleavage >= 0.1 else F

C52G G45U
T

Ask: Determine whether measured self-cleavage meets or exceeds 0.1 for A41C G13A
Result: F

Ask: Form field: self-cleavage at least 0.1? Entry: C32G C9G
Result: T

Ask: Hi team, for A29C C14G , is the recorded self-cleavage at or above 0.1?
Result: F

Ask: Decide: is the reported value of self-cleavage for A36G A7G equal to or greater than 0.1?
Result: T

Ask: In plain terms: is recorded self-cleavage at least 0.1 for A36U C31G ?
Result: F

Ask: API: above_or_equal(metric=self-cleavage, cutoff=0.1) for item A38C A7C
Result: F

Ask: Determine whether measured self-cleavage meets or exceeds 0.1 for A28C G34U
Result: T

Ask: Check this variant for self-cleavage at or above 0.1: A46G C52U
Result: F
